assay: BSK_3C_TissueFactor: BioMAP Diversity Plus: 3C Assay for Tissue Factor Biomarker Activity (AID 2282997); settings: BioMAP 3C HUVEC, tissue factor biomarker readout; actives raise or lower the signal
The source made the active and inactive calls. Rule for the calls: active = hit-call score of the fitted dose curve at least 0.9, where 1 is the maximum; inactive = score below 0.9.
QUANTITY_NAME: outcome

Query: Fill blank: measured outcome of the molecule CCOP(=O)(OCC)SCCSCC is ____.
Result: inactive

Query: Fill blank: measured outcome of the molecule O=[N+]([O-])c1cccc2ccccc12 is ____.
Result: inactive

Query: Fill blank: measured outcome of the molecule COc1ccccc1N is ____.
Result: inactive

Query: Fill blank: measured outcome of the molecule Cc1cc(Cl)ccc1N is ____.
Result: inactive

Query: Fill blank: measured outcome of the molecule CC(C=O)Cc1ccc2c(c1)OCO2 (configuration not stated) is ____.
Result: inactive

***
Query: Fill blank: measured outcome of the molecule CCCCN(CCCC)C(=S)[S-].CCCCN(CCCC)C(=S)[S-].[Ni+2] is ____.
Result: inactive

Query: Fill blank: measured outcome of the molecule Oc1ccc(Cc2ccc(O)cc2)cc1 is ____.
Result: inactive

---

Molecular target: Estrogen receptor (Homo sapiens) + Estrogen receptor beta (Homo sapiens) (UniProt P03372+Q92731)
Sequence (P03372 whole entry, looked up): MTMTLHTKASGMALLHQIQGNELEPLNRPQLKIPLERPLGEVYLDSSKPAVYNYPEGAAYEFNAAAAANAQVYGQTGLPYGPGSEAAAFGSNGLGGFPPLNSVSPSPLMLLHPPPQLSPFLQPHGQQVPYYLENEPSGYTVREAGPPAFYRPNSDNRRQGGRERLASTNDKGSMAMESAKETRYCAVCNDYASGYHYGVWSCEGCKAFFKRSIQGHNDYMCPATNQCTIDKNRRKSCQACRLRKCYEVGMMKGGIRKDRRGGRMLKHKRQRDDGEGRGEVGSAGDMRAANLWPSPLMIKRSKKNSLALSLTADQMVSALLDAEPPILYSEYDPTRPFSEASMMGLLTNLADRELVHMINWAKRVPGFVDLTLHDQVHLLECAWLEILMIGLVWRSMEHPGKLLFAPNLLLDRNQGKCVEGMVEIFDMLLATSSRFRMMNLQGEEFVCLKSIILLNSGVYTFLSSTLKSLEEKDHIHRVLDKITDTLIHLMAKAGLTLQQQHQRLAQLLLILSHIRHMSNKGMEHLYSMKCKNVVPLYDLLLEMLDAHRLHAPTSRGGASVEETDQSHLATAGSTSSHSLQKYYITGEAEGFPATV
Sequence (Q92731 whole entry, looked up): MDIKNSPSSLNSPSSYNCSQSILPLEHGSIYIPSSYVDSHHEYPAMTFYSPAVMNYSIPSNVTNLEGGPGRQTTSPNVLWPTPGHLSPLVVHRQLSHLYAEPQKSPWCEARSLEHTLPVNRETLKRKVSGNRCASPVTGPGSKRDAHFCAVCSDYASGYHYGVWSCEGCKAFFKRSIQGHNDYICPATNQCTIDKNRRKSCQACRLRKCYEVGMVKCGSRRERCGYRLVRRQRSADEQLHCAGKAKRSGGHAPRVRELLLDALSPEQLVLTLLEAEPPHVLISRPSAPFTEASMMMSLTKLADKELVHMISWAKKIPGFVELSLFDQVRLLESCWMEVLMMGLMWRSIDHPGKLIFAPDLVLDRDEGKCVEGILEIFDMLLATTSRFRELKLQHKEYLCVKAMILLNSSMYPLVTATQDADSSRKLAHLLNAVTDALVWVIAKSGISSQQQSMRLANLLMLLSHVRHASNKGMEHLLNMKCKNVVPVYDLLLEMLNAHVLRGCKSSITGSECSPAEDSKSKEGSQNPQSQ
Assay: OT_ER_ERaERb_0480: Odyssey Thera (OT) 8-hour HEK293T Protein-Complementation Assay for Estrogen Receptor-alpha/-beta Heterodimer (AID 2283352)
Procedure: OT_ER_ERaERb_0480 is a cell-based assay that uses HEK293T, a human kidney cell line, with measurements taken at 8 hours after chemical dosing in a 384-well plate.OT_ER_ERaERb_0480 is one of one assay component(s) measured or calculated from the OT_ER_ERaERb_0480 assay. […] This assay endpoint, OT_ER_ERaERb_0480, was analyzed in the positive analysis fitting direction relative to DMSO as the negative control and baseline of activity. […]
Records with an inconclusive call do not appear. Calls of active or inactive are those of the source. How the source made its calls: active means hit-call score of the fitted dose curve at least 0.9, where 1 is the maximum; inconclusive means response in the unintended direction; inactive means score below 0.9.
# valid calls are active, inactive; nothing else

Illustrative cases are given below, each with its answer.
Query: Please let me know the test result on file for CCC[CH2][Sn]([Cl])([Cl])[CH2]CCC .
Result: inactive

Query: Please let me know the test result on file for CCOc1ccc(N)cc1 .
Result: inactive

***
Query: Please let me know the test result on file for O=C(NC(=O)c1c(F)cccc1F)Nc1ccc(Cl)cc1 .
Result: inactive

Query: Please let me know the test result on file for CC(=Cc1ccccc1)[N+](=O)[O-] .
Result: inactive

Query: Please let me know the test result on file for Cc1cc(Cl)ccc1OC(C)C(=O)O (stereo not drawn) .
Result: inactive

---

target: X-box-binding protein 1 (Homo sapiens); test: ATG_Xbp1_CIS: Attagene CIS-FACTORIAL HepG2 Assay for human X-box Binding Protein 1 (XBP1) (AID 2282972); settings: HepG2 XBP1 cis-element reporter, Attagene multiplex; actives raise or lower the signal
Activity calls are given as the source filed them. Rule for the calls: active = hit-call score of the fitted dose curve at least 0.9, where 1 is the maximum; inactive = score below 0.9.
# valid calls are true = active, false = inactive; nothing else

Illustrative cases are given below, each with its answer.
Query: Please let me know the test result on file for CC(C)N(C(=O)CCl)c1ccccc1 .
Result: true

Query: Please let me know the test result on file for c1ccc2c(c1)Oc1ccccc1O2 .
Result: false

Query: Please let me know the test result on file for CNC(=O)N(C)c1nc2ccccc2s1 .
Result: false

Query: Please let me know the test result on file for CCC[N+](CCC)(CCC)CCC .
Result: false

Query: Please let me know the test result on file for Nc1nc(N)nc(Cl)n1 .
Result: false

***
Query: Please let me know the test result on file for COc1ccccc1N .
Result: false

Query: Please let me know the test result on file for NC(=O)c1ccc(N)nc1 .
Result: false

Query: Please let me know the test result on file for CCOP(=S)(OCC)SCSc1cc(Cl)ccc1Cl .
Result: false

Query: Please let me know the test result on file for C=CCN=C=S .
Result: false

Query: Please let me know the test result on file for C=CC(Cl)CCl (stereo unspecified) .
Result: false

Query: Please let me know the test result on file for CCCCC(CC)C(=O)Cl (stereo unspecified) .
Result: false

Query: Please let me know the test result on file for O=C(O)CC(O)(CC(=O)O)C(=O)O .
Result: false

Query: Please let me know the test result on file for BrCc1ccc(Br)cc1 .
Result: false

Query: Please let me know the test result on file for ClCCN1CCOCC1 .
Result: false

Query: Please let me know the test result on file for CCCCN(CCCC)C(=S)[S-].CCCCN(CCCC)C(=S)[S-].[Ni+2] .
Result: false

Query: Please let me know the test result on file for Clc1ccc(C(Cl)(Cl)Cl)cn1 .
Result: false

Recorded values, source PubChem BioAssay (EPA / NIEHS).
